Target: Epidermal growth factor receptor (Homo sapiens) (UniProt P00533)
Sequence (P00533 whole entry, looked up): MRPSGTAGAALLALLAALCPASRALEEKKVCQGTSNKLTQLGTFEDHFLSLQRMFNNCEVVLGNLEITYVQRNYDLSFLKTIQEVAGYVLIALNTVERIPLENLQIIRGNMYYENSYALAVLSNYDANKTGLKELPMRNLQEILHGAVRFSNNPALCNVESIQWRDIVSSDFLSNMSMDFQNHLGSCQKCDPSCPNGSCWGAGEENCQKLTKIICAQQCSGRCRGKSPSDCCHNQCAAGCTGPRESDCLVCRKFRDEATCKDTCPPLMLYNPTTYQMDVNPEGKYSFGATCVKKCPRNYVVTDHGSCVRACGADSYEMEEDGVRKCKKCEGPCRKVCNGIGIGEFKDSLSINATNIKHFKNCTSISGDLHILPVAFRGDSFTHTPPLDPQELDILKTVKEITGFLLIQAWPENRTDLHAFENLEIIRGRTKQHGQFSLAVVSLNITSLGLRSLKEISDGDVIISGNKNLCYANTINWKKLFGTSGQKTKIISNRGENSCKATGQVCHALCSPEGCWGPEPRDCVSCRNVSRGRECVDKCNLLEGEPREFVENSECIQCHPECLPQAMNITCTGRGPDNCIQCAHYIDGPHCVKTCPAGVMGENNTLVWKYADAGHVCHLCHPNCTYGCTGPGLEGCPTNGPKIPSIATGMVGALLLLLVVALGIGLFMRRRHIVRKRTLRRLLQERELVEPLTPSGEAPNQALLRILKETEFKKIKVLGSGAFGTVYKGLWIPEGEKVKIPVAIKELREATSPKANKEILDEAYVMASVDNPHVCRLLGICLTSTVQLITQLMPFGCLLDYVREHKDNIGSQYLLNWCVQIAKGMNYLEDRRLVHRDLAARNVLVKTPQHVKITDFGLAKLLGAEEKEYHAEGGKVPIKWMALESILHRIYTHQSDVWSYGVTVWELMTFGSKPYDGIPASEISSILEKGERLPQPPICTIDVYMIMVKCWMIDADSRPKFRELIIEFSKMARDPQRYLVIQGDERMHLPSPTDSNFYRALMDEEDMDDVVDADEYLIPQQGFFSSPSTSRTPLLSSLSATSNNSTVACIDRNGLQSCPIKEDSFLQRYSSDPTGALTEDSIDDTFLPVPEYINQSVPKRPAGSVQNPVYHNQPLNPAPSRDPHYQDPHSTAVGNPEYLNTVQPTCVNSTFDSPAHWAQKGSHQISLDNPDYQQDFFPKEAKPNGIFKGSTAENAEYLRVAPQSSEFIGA
Assay: EGFR binders on small-molecule microarrays, primary screen, biochemical, small-molecule microarray, 635 nm fluorescence (AID 1104);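 note: score merges 667 nm emission intensity with spot signal to noise over triplicate slides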
Conditions: EGFR binding, higher = more signal
Recorded composite z-score by entry
Parameter Measured: composite z-score

compound=O=C/C=C/c1ccc(Cl)cc1 tgt="Epidermal growth factor receptor (Homo sapiens) (UniProt P00533)" parameter_measured="composite z-score" reported_value=-0.301
compound=O=C(CCN1CCOCC1)c1cccc(O)c1 tgt="Epidermal growth factor receptor (Homo sapiens) (UniProt P00533)" parameter_measured="composite z-score" reported_value=1.74
compound="COc1cc2c(cc1O)C(C)N(Cc1cccc(OC(F)(F)F)c1)CC2 (stereo not given)" tgt="Epidermal growth factor receptor (Homo sapiens) (UniProt P00533)" parameter_measured="composite z-score" reported_value=-0.425
compound=COCCOC(=O)N1C(=O)[C@@]2(c3cc(C#CCNC(N)=O)ccc31)[C@H](c1ccc(O)cc1)N1[C@H](c3ccccc3)[C@H](c3ccccc3)OC(=O)[C@H]1[C@@H]2C(=O)Nc1nc2ccccc2s1 tgt="Epidermal growth factor receptor (Homo sapiens) (UniProt P00533)" parameter_measured="composite z-score" reported_value=0.228
compound="CC(C)OC(=O)CC(=O)CC(O)c1ccc(C#N)cc1 (stereo not given)" tgt="Epidermal growth factor receptor (Homo sapiens) (UniProt P00533)" parameter_measured="composite z-score" reported_value=-0.361

---

Assay: basal RPMI8226 mitochondrial membrane potential changes, profiling panel, cell-based, JC-1 fluorescence, 24 h, 100 nL compound (AID 1169)
Details: RPMI8226 myeloma, JC-1 mitochondrial potential fluorescence, higher = more signal
Answer 0 (no) if z-score is under -0.3, and 1 (yes) if it is -0.3 or more.

compound=CC(C)(C)OC(=O)CC[C@@]1(C(=O)NCCN2CCOCC2)N=C(c2ccc(OCCCO)cc2)O[C@@H]1c1ccccc1 label="0 (no)"
compound=O=C1N(CCS(=O)(=O)c2ccccc2)Cc2ccccc2C[C@]12N=C(c1ccc(OCCCO)cc1)O[C@@H]2c1ccccc1 label="0 (no)"
compound="C#CCN(C(/C=C/c1ccccc1)CO)C(C(=O)O)c1ccccc1 (stereo not drawn)" label="0 (no)"
compound="O=C1OCCC=C[C@H]2OC34C=CCN(c5ccc6ccccc6c5)C(=O)[C@H]3N(CCCCCO)C(=O)[C@@H]4C12 (stereo partly drawn)" label="1 (yes)"
compound=COc1cc(CO)ccc1OC(C)=O label="1 (yes)"
compound=COc1cc2c(cc1OC)CN(C(=O)[C@@H]1[C@H]3C(=O)O[C@H](c4ccccc4)[C@H](c4ccccc4)N3[C@H](c3ccccc3OCCO)[C@@]13C(=O)Nc1ccc(C#CCNC(N)=O)cc13)CC2 label="0 (no)"
compound=CN(C)CCCCNC(=O)[C@H]1C[C@H]2C(=O)N[C@@H](Cc3ccccc3)C(=O)N2[C@H]1c1ccc(O)cc1 label="1 (yes)"

---

Quick reference for z-score among some compounds
Experiment: osmotic lysis modulators in infected erythrocytes, primary screen, PSAC antagonist project, cell-based, P. falciparum Indochina, OD700, 3 h (AID 1156)
Settings: higher = more signal, called active from +8 up or from −8 down
Parameter Measured: z-score

compound="CC(C)(C)N1CC=CC23O[C@@H]4C=CCOC(=O)[C@@H]4[C@H]2C(=O)N(CCCCCO)[C@@H]3C1=O (stereo partly specified)" reported_value=1.47
compound=COCCOC(=O)N1C(=O)[C@@]2(c3cc(C#CCNC(N)=O)ccc31)[C@H](c1ccc(O)cc1)N1[C@H](c3ccccc3)[C@H](c3ccccc3)OC(=O)[C@H]1[C@@H]2C(=O)NC[C@H](O)c1ccccc1 reported_value=0.205
compound=N[C@@H](Cc1ccccc1)Cn1cc(-c2ccccc2)nn1 reported_value=0.0287
compound="CCCCCN1CC=CC23O[C@@H]4C=CCOC(=O)[C@@H]4[C@H]2C(=O)N(CCCO)[C@@H]3C1=O (stereo partly specified)" reported_value=0.993
compound=C=CCOC(=O)[C@H]1[C@@H]2C(=O)O[C@@H](c3ccccc3)[C@@H](c3ccccc3)N2[C@@H](c2ccc(OCCOC(=O)[C@@H]3C[C@@H]4C(=O)NCC(=O)N4[C@@H]3c3ccc(O)cc3)cc2)[C@]12C(=O)Nc1ccccc12 reported_value=0.708
compound=O=C1O[C@@H](c2ccccc2)[C@@H](c2ccccc2)N2[C@@H](c3ccc(OCCO)cc3)[C@]3(C(=O)Nc4ccccc43)[C@@H](C(=O)Nc3nc4ccccc4s3)[C@H]12 reported_value=1.37

---

System: XIP peptide (Xip251-270)
Test: small-molecule binders of XIP peptide, primary screen, biochemical, small-molecule microarray, fluorescence 635/667 nm, 0.5 µg/mL protein (AID 1183)
Conditions: small-molecule microarray binding, fluorescence 635 nm; higher = more signal
Catalogue of composite z-score readings, one per entry.
Parameter Measured: composite z-score

compound=COC(=O)[C@@]1(Cc2ccccc2)[C@H]2c3cc(C(=O)N4CCCC4)n(C)c3C[C@H]2CN1C(=O)c1ccccc1 tgt="XIP peptide (Xip251-270)" reported_value=0.46
compound=CC(C)(C)OC(=O)CC[C@@]1(C(=O)O)N=C(c2ccc(OCCCO)cc2)O[C@@H]1c1ccccc1N=[N+]=[N-] tgt="XIP peptide (Xip251-270)" reported_value=-0.333
compound=CC(C)(C)OC(=O)CC[C@@]1(C(=O)NCCN2CCOCC2)N=C(c2ccc(OCCCO)cc2)O[C@@H]1c1ccccc1 tgt="XIP peptide (Xip251-270)" reported_value=0.825
compound=NCCCCCCNC(=O)[C@H]1C[C@H]2C(=O)NCC(=O)N2[C@H]1c1cccc(OCCO)c1 tgt="XIP peptide (Xip251-270)" reported_value=0.814
compound="C=CCC(OC(C)=O)[C@@H]1[C@@H](N(Cc2cccc3ccccc23)C(=O)c2cccc3ccccc23)c2cc(OCCCO)ccc2N1C(=O)c1ccc2ccccc2n1 (stereo partly specified)" tgt="XIP peptide (Xip251-270)" reported_value=0.343
compound=COc1ccc(CCN2C(=O)[C@@]3(Cc4ccccc42)c2ccccc2C(=O)N(Cc2ccccc2Cl)[C@H]3c2ccc(CO)cc2)cc1 tgt="XIP peptide (Xip251-270)" reported_value=0.285
compound=N[C@@H](Cc1ccccc1)Cn1cc(-c2ccccc2)nn1 tgt="XIP peptide (Xip251-270)" reported_value=-0.533
compound="CC(C)c1ccc(NN2C(C(O)c3ccc(N(C)C)cc3)C=CC3C(=O)N(c4ccccc4)C(=O)C32)cc1 (stereo unspecified)" tgt="XIP peptide (Xip251-270)" reported_value=0.618
compound=Cc1ccc(S[C@]2(C(=O)NC3CC3)CC(=O)N(C3CCCCC3)[C@@H]2c2ccc(CO)cc2I)cc1 tgt="XIP peptide (Xip251-270)" reported_value=0.784
compound=C=C(COC)C(=O)CC[C@@H](OC(=O)c1cccnc1)c1ccc(CO)o1 tgt="XIP peptide (Xip251-270)" reported_value=0.496
compound=CN(C)C(=O)[C@]1(CCC(=O)OC(C)(C)C)N=C(c2ccc(OCCCO)cc2)O[C@@H]1c1ccccc1N=[N+]=[N-] tgt="XIP peptide (Xip251-270)" reported_value=0.803
compound=CC(=O)NCCCC[C@@H]1NC(=O)[C@H]2C[C@@H](C(=O)NCCCCCC[N+](C)(C)C)[C@@H](c3cccc(OCCO)c3)N2C1=O tgt="XIP peptide (Xip251-270)" reported_value=0.893
compound=COCCOC(=O)N1C(=O)[C@@]2(c3cc(C#CCNC(N)=O)ccc31)[C@H](c1ccccc1OCCO)N1[C@H](c3ccccc3)[C@H](c3ccccc3)OC(=O)[C@H]1[C@@H]2C(N)=O tgt="XIP peptide (Xip251-270)" reported_value=0.467
compound=CN(C)CCCCCCNC(=O)[C@H]1C[C@H]2C(=O)N[C@@H](CCCCN)C(=O)N2[C@H]1c1ccc(O)cc1 tgt="XIP peptide (Xip251-270)" reported_value=0.937
compound="COC(=O)c1ccc(C(O)C2C=CC3C(=O)N(C)C(=O)C3N2NC(=O)OC(C)(C)C)o1 (stereo unspecified)" tgt="XIP peptide (Xip251-270)" reported_value=0.789
compound=C=CC[C@@H](OC(=O)Nc1ccc(OC)cc1)c1ccc(O)c2ccccc12 tgt="XIP peptide (Xip251-270)" reported_value=0.737

---

Assay: small-molecule microarray binders of probe aWnt5a, primary screen, biochemical, biotinylated probe, 635/667 nm fluorescence (AID 1113);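 note: score merges 667 nm fluorescence intensity with signal-to-noise per printed feature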
Details: higher = more signal
Parameter Measured: composite z-score

compound="Cc1ccccc1C(O)C1C=CC2C(=O)N(C)C(=O)C2N1Nc1ccccc1 (centres undefined)" reported_value=0.111
compound=COCC1=C2[C@@H](CCc3ccccc3)OB(O)C[C@@H]2[C@@H]2C(=O)N(Cc3ccccc3)C(=O)[C@@H]2C1 reported_value=-0.0242
compound=CC(=O)NCCCC[C@@H]1NC(=O)[C@@H]2C[C@H](C(=O)NCCCCN(C)C)[C@H](c3ccc(O)cc3)N2C1=O reported_value=-0.124
compound="O=C1OCCC=C[C@H]2OC34C=CCN(c5ccc6ccccc6c5)C(=O)[C@H]3N(CCCCCO)C(=O)[C@@H]4C12 (some centres undefined)" reported_value=-0.147
